- system_tested: Acetylcholinesterase (Homo sapiens)
- Sequence (P22303 whole entry): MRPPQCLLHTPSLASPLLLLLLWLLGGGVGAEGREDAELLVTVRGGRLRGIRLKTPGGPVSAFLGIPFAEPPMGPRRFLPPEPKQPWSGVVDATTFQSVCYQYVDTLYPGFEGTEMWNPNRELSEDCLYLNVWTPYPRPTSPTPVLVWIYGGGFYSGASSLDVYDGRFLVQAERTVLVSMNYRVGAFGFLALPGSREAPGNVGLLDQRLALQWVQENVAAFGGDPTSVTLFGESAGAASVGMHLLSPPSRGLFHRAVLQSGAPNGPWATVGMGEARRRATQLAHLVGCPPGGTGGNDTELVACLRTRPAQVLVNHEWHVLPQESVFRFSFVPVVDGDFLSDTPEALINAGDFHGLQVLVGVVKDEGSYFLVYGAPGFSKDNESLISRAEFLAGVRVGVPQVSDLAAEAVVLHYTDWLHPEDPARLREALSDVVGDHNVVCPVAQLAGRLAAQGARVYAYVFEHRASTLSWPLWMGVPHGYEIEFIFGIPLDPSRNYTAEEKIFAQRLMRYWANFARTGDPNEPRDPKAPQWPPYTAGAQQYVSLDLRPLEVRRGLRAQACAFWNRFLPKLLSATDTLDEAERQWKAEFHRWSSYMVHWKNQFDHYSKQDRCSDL
Lab note: anything with IC50 below 5 nM is marked MET; values at 5 nM or higher are marked NOT MET.

>>> df
                                   compound      cat
0  CN1CCC(C2Cc3ccccc3C2=O)CC1 (configuration not stated)  NOT MET
1               CN1CCC(=C2Cc3ccccc3C2=O)CC1  NOT MET
2          CN1CCC(CC/C=C2\Cc3ccccc3C2=O)CC1      MET
3          CN1CCC(C[C@@H]2Cc3ccccc3C2=O)CC1  NOT MET
4        CN1CCC(/C=C/C=C2\Cc3ccccc3C2=O)CC1      MET
5                      CC1CCN(Cc2ccccc2)CC1  NOT MET
6                     Cc1ccccc1CN1CCC(C)CC1  NOT MET
